Assay: Encapsulation rate of lipid nanoparticles (Ribogreen)
Assay type: physicochemical
Conditions: Table 3; Fluc mRNA-loaded lipid nanoparticles; TxT/DSPC/chol/PEG-DMG=50/3/47/1.5 (mol%)
Description: The encapsulation rate of the lipid nanoparticles was determined by measuring the amount of encapsulated nucleic acid (mRNA) using Ribogreen (manufactured by Life Technologies), which is an RNA intercalator. The mRNA amount was quantified based on a calibration curve prepared from a series of diluted mRNA solutions at known concentrations. […]
measured_parameter: mRNA encapsulation rate (%)

>  <compound>
CCCCCCCCCCN(CCCCCCCCCC)C(=O)CCC(=O)OCC(COC(=O)CCC(=O)N(CCCCCCCCCC)CCCCCCCCCC)(COC(=O)CCC(=O)N(CCCCCCCCCC)CCCCCCCCCC)NC(=O)CCN1CCCCC1 [TxT-5-4A20]

>  <mRNA encapsulation rate, %>
98.4

$$$$
>  <compound>
CCCCC(CC)CN(CC(CC)CCCC)C(=O)CCCC(=O)OCC(COC(=O)CCCC(=O)N(CC(CC)CCCC)CC(CC)CCCC)(COC(=O)CCCC(=O)N(CC(CC)CCCC)CC(CC)CCCC)NC(=O)CCN1CCCCC1 (centres unmarked) [TxT-5-5A16b]

>  <mRNA encapsulation rate, %>
96.0

$$$$
>  <compound>
CCCCCCN(CCCCCC)C(=O)CCCC(=O)OCC(COC(=O)CCCC(=O)N(CCCCCC)CCCCCC)(COC(=O)CCCC(=O)N(CCCCCC)CCCCCC)NC(=O)CCN1CCCCC1 [TxT-5-5A12]

>  <mRNA encapsulation rate, %>
85.9

$$$$
>  <compound>
CCCCCCC(CCCC)CNC(=O)CCCC(=O)OCC(COC(=O)CCCC(=O)NCC(CCCC)CCCCCC)(COC(=O)CCCC(=O)NCC(CCCC)CCCCCC)NC(=O)CCN1CCCCC1 (stereo not drawn) [TxT-5-5A12β]

>  <mRNA encapsulation rate, %>
99.5

$$$$
>  <compound>
CCCCCCC(CCCCCC)COC(=O)CCCC(=O)OCC(COC(=O)CCCC(=O)OCC(CCCCCC)CCCCCC)(COC(=O)CCCC(=O)OCC(CCCCCC)CCCCCC)NC(=O)CCN1CCCCC1 [TxT-5-5E14]

>  <mRNA encapsulation rate, %>
98.8

$$$$

====

Test: Encapsulation rate of lipid nanoparticles (Ribogreen)
Assay type: physicochemical
Conditions: Table 4; Fluc mRNA-loaded lipid nanoparticles; TxT-5-5A14/DSPC/chol/PEG-DMG=50/3/47/1.5; SM-102, ALC-0315 or MC3/DSPC/chol/PEG-DMG=50/10/40/1.5 (mol%)
measured_parameter: mRNA concentration (µg/µL)

>  <molecule>
CCCCC/C=C\C/C=C\CCCCCCCCC(CCCCCCCC/C=C\C/C=C\CCCCC)OC(=O)CCCN(C)C [MC3, DLin-MC3-DMA, reference compound]

>  <mRNA concentration (µg/µL)>
0.021

$$$$
>  <molecule>
CCCCCCCN(CCCCCCC)C(=O)CCCC(=O)OCC(COC(=O)CCCC(=O)N(CCCCCCC)CCCCCCC)(COC(=O)CCCC(=O)N(CCCCCCC)CCCCCCC)NC(=O)CCN1CCCCC1 [TxT-5-5A14]

>  <mRNA concentration (µg/µL)>
0.022

$$$$
>  <molecule>
CCCCCCCCCCCOC(=O)CCCCCN(CCO)CCCCCCCC(=O)OC(CCCCCCCC)CCCCCCCC [SM-102, reference compound]

>  <mRNA concentration (µg/µL)>
0.018

$$$$
>  <molecule>
CCCCCCCCC(CCCCCC)C(=O)OCCCCCCN(CCCCO)CCCCCCOC(=O)C(CCCCCC)CCCCCCCC (stereo not shown) [ALC-0315, reference compound]

>  <mRNA concentration (µg/µL)>
0.025

$$$$
